Listing: minimal effective concentration of selected molecules
Tested on: recombinant guanylate cyclase reporter cell line
assay-method-text: Effect on a recombinant guanylate cyclase reporter cell line
Format: cell-based
condition-context: in some cases mean values from individual determinations, read-out: MEC (minimum effective concentration)

{"molecule": "CC(N)(CCC(F)(F)F)CNC(=O)c1cnc2c(OCc3c(F)cccc3F)cccc2c1 (single isomer, unassigned; enantiomer b) [Example 40]", "minimal effective concentration": "10 µM"}
{"molecule": "O=C(NC1(c2ccc(F)c(F)c2)CC1)c1ccnc2c(OCc3c(F)cccc3F)cccc12 [Example 1]", "minimal effective concentration": "3 µM"}
{"molecule": "Cc1cc(OCc2c(F)cccc2F)c2nccc(C(=O)N[C@@](C)(CO)c3nnc(C)s3)c2c1 [Example 48]", "minimal effective concentration": "3 µM"}
{"molecule": "COc1ccc(CC(C)(N)CNC(=O)c2ccnc3c(OCc4c(F)cccc4F)cccc23)cc1 (single isomer, unassigned; enantiomer b) [Example 37]", "minimal effective concentration": "10 µM"}
{"molecule": "CN(C)CCNC(=O)c1ccnc2c(OCc3c(F)cccc3F)cccc12 [Example 14]", "minimal effective concentration": "10 µM"}
{"molecule": "CCCC[C@H](CO)NC(=O)c1ccnc2c(OCc3c(F)cccc3F)cccc12 [Example 4]", "minimal effective concentration": "3 µM"}
{"molecule": "CCC(CO)(CO)NC(=O)c1ccnc2c(OCc3c(F)cccc3F)cccc12 [Example 25]", "minimal effective concentration": "10 µM"}
{"molecule": "CC(N)(CNC(=O)c1ccnc2c(OCc3c(F)cccc3F)cccc12)C1CC1 (racemic) [Example 42]", "minimal effective concentration": "10 µM"}
{"molecule": "O=C(Nc1cnn(CCO)c1)c1ccnc2c(OCc3c(F)cccc3F)cccc12 [Example 30]", "minimal effective concentration": "10 µM"}
{"molecule": "O=C(NCc1ccccc1-n1ccnc1)c1ccnc2c(OCc3c(F)cccc3F)cccc12 [Example 28]", "minimal effective concentration": "3 µM"}
{"molecule": "O=C(NC1CCCc2ccccc21)c1ccnc2c(OCc3c(F)cccc3F)cccc12 (stereo not shown) [Example 29]", "minimal effective concentration": "0.3 µM"}
{"molecule": "O=C(NCC1(O)CC1)c1ccnc2c(OCc3c(F)cccc3F)cccc12 [Example 22]", "minimal effective concentration": "3 µM"}
{"molecule": "Cc1nn(Cc2ccc(F)cc2)c(C)c1NC(=O)c1ccnc2c(OCc3c(F)cccc3F)cccc12 [Example 17]", "minimal effective concentration": "10 µM"}
{"molecule": "CCCC[C@H](CO)NC(=O)c1cc(C)nc2c(OCc3c(F)cccc3F)cccc12 [Example 46]", "minimal effective concentration": "2 µM"}
{"molecule": "CC(NC(=O)c1ccnc2c(OCc3c(F)cccc3F)cccc12)c1nc(C(F)(F)F)no1 (stereo not shown) [Example 18]", "minimal effective concentration": "3 µM"}
{"molecule": "O=C(NC1c2ccccc2CC1O)c1ccnc2c(OCc3c(F)cccc3F)cccc12 (stereo not shown) [Example 9]", "minimal effective concentration": "3 µM"}
